# TEST DESCRIPTION: Selectivity ratio of IC50 for human A2780 cells to IC50 for chloroquine/mefloquine-resistant Plasmodium falciparum Dd2
PROPERTY LABEL: Ratio IC50

INSERT INTO assay_data (compound, property_label, endpoint_value) VALUES
  ('CCCCCCCCc1cc(=O)c2ccccc2[nH]1', 'Ratio IC50', 3.4),
  ('CC(C)CCCCCc1cc(=O)c2ccccc2[nH]1', 'Ratio IC50', 57.7),
  ('CCCC(C)CCCc1cc(=O)c2ccccc2[nH]1 (centres undefined)', 'Ratio IC50', 89),
  ('CCC(C)CCCCc1cc(=O)c2ccccc2[nH]1 (centres undefined)', 'Ratio IC50', 11.6);

The reported measurements were obtained from ChEMBL document CHEMBL4052706.
